- EXPERIMENTAL_SYSTEM: human TLR9 (Homo sapiens, UniProt Q9NR96)
- Sequence (Q9NR96 26-1032): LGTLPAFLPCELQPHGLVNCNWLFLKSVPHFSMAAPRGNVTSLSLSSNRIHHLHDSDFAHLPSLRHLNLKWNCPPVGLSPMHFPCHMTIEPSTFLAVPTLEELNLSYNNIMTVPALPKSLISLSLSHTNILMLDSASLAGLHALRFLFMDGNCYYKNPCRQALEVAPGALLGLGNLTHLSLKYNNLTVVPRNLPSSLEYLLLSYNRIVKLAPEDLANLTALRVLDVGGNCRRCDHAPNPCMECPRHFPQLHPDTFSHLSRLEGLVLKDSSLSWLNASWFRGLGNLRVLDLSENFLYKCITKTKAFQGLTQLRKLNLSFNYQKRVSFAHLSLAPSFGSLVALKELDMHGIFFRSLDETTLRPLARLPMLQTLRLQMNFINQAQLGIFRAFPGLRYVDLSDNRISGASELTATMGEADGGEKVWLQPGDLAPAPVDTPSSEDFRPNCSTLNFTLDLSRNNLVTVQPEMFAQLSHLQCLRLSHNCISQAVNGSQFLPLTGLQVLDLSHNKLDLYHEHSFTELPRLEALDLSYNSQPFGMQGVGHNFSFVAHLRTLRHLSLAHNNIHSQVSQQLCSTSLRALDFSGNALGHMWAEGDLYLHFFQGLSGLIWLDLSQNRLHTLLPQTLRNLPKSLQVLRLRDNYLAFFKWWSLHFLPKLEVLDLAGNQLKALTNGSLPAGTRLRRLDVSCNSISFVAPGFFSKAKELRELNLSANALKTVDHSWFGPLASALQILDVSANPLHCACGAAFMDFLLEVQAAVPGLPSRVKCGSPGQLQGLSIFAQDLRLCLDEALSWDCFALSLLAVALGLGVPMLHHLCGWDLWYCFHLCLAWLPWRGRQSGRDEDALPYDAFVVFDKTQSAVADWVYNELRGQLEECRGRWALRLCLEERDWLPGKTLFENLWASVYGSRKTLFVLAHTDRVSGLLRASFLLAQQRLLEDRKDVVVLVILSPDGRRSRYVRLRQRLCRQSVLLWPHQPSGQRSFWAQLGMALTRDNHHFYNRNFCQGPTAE
- RUN_DESCRIPTION: TLR9 inhibition reporter assay (HEK-Blue SEAP reporter)
- CONDITION_DETAILS: HEK-Blue cells overexpressing human TLR9; ODN2006 5 nM; 22 hour incubation
- From the text: TLR7/8/9 Inhibition Reporter Assays HEK-Blue™-cells (Invivogen) overexpressing human TLR7, TLR8 or TLR9 receptors were used for screening inhibitors of these receptors using an inducible SEAP (secreted embryonic alkaline phosphatase) reporter gene under the control of the IFN-β minimal promoter fused to five NF-κB and AP-1-binding sites. […]
Entries are sorted into classes by IC50 as follows: low: < 600 nM; mid: ≥ 600 nM and < 3000 nM; high: ≥ 3000 nM

- COMPOUND: "COc1ccc(-c2[nH]c3ccc(N4CCC(N5CCN(CCCN6CCCC6)CC5)CC4)cc3c2C(C)C)cc1OC [Example 102]"
  ANSWER_LABEL: "low"
- COMPOUND: "Cc1cc(-c2[nH]c3ccc(N4CCC(N5CCN(C(C)C)CC5)C4=O)cc3c2C(C)C)cc(C)n1 (single isomer, unassigned) [Example 6]"
  ANSWER_LABEL: "mid"
- COMPOUND: "COc1ccc(-c2[nH]c3ccc(N4CCCCC4c4ccncc4)cc3c2C(C)C)cc1OC (stereo not drawn) [Example 113]"
  ANSWER_LABEL: "high"
- COMPOUND: "COc1ccc(-c2[nH]c3ccc(N4CCC(OC5CCNCC5)CC4)cc3c2C(C)C)cc1OC [Example 133]"
  ANSWER_LABEL: "low"
- COMPOUND: "CCc1c(-c2ccnc(OC)c2)[nH]c2ccc(N3CCN(C4CCN(CC)CC4)CC3)cc12 [Example 148]"
  ANSWER_LABEL: "low"
- COMPOUND: "COc1ccc(-c2[nH]c3ccc(N4CCC(N(C)C)C4=O)cc3c2C(C)C)cc1OC (stereo not drawn) [Example 3]"
  ANSWER_LABEL: "high"
- COMPOUND: "COc1ccc(-c2[nH]c3ccc(NC4CCC(N5CCN(C(C)=O)CC5)CC4)cc3c2C(C)C)cc1OC (single isomer, unassigned) [Example 44]"
  ANSWER_LABEL: "high"
- COMPOUND: "CCc1c(-c2ccnc(C)c2)[nH]c2ccc(N3CCC(OC4CCN(C(C)C)CC4)CC3)cc12 [Example 182]"
  ANSWER_LABEL: "mid"
- COMPOUND: "COc1ccc(-c2[nH]c3ccc(NC4CCC(NCCCN(C)C)CC4)cc3c2C(C)C)cc1OC (stereo not drawn) [Example 37]"
  ANSWER_LABEL: "mid"
- COMPOUND: "COc1ccc(-c2[nH]c3ccc(N(C)CC4CCCN4C)cc3c2C(C)C)cc1OC (stereo not drawn) [Example 104]"
  ANSWER_LABEL: "high"
- COMPOUND: "COc1ccc(-c2[nH]c3ccc(N4CCC(NCCN5CCOCC5)CC4)cc3c2C(C)C)cc1OC [Example 86]"
  ANSWER_LABEL: "mid"
- COMPOUND: "CCc1c(-c2ccc(OC)c(OC)c2)[nH]c2ccc(N3CCC(OC4CCN(C(C)C)CC4)CC3)cc12 [Example 191]"
  ANSWER_LABEL: "mid"
- COMPOUND: "COc1ccc(-c2[nH]c3ccc(NC(=O)C4CNCCO4)cc3c2C(C)C)cc1OC (stereo not drawn) [Example 15]"
  ANSWER_LABEL: "high"
- COMPOUND: "CCc1c(-c2ccc(OC)c(OC)c2)[nH]c2ccc(N3CCC(OC4CCN(C)CC4)CC3)cc12 [Example 134]"
  ANSWER_LABEL: "low"
